# target: Cytochrome P450 2C9 (Homo sapiens)
# Sequence (P11712 whole entry): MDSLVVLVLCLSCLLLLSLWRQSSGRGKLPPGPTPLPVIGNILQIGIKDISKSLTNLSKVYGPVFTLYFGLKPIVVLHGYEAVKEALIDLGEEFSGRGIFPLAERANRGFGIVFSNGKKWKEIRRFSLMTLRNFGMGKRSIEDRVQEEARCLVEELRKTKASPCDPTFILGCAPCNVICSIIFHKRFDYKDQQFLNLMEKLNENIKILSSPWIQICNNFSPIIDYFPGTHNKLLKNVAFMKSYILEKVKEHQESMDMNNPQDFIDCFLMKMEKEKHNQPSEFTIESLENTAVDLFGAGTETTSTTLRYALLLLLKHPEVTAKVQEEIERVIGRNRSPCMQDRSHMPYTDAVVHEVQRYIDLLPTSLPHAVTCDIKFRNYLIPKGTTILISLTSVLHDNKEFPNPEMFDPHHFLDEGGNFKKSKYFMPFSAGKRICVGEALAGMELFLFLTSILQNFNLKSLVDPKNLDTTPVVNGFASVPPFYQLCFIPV
# testDetails: Binding affinity towards cytochrome P450 2C9
# Format: ADME
hey, just use Y if measured Ki is less than 10 µM, otherwise N

> print(dat)
                                   compound  classname
1  CC(=O)[C@H]1CC[C@H]2[C@@H]3CCC4=CC(=O)CC[C@]4(C)[C@H]3CC[C@]12C [PROGESTERONE]          Y
2  Clc1ccc(CO[C@@H](Cn2ccnc2)c2ccc(Cl)cc2Cl)c(Cl)c1 [(R)-MICONAZOLE]          Y
3  COC(=O)c1ccc2nc([S@+]([O-])Cc3nccc(OC)c3OC)[nH]c2c1          N
4  COCCCC/C(=N\OCCN)c1ccc(C(F)(F)F)cc1 [FLUVOXAMINE]          Y
5  CO[C@]1(C)C[C@H](c2ccccc2)C2C(=O)Oc3ccccc3C2O1 (some centres undefined)          N
6  COc1ccnc(C[S@+]([O-])c2nc3cc(OC(F)F)ccc3[nH]2)c1OC          N
7  CC(=O)C[C@H](c1ccccc1)C1C(=O)Oc2ccccc2C1O (some centres undefined)          N
8  CO[C@@]1(C)C[C@H](c2ccccc2)c2c(c3ccccc3oc2=O)O1          N
9  CCCCC1C(=O)N(c2ccccc2)N(c2ccccc2)C1=O [PHENYLBUTAZONE]          N

Data provenance: ChEMBL document CHEMBL1148414
